# System: Fer (mouse)
# test-details: phosphorylation enrichment, bacterial display (enrichment ratio); higher = better substrate or ligand; peptides without Tyr show the background
readout-kind: phosphorylation enrichment
Lab note: jot down the number only; don't add units.

query-sequence	test-target	phosphorylation enrichment
HRAVEYLLTGI [RAD23A_Y197]	Fer (mouse)	0.488
KYLENYYDLKK [MMP3_Y41]	Fer (mouse)	0.513

Proceeding to the next sequence to report its phosphorylation enrichment.
**Q:** Find the measured phosphorylation enrichment: item ETWHNYHKFDS [MATR3_Y243_S240W] , target or system Fer (mouse).
**A:** 0.395

###

# test-target: SHP2-C SH2;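 further: peptide library displayed on the E. coli surface as eCPX fusions, selected cells deep-sequenced, score is each peptide's frequency after selection divided by its frequency in the input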
# test-details: SH2 binding enrichment of the phosphorylated peptide, bacterial display (enrichment ratio); higher = better substrate or ligand; peptides without Tyr show the background
readout-kind: SH2 binding enrichment
Lab note: jot down the number only; don't add units.

Consider the worked cases shown below.
query-sequence	test-target	SH2 binding enrichment
ELELLYPDRNS [NYX_Y284_L285P]	SHP2-C SH2	1.01
MGHVNYGAFIN [GLB1_Y485_R482H_YF]	SHP2-C SH2	0.804
NHYKIHNLCAE [PTEN_Y68_Y68H]	SHP2-C SH2	1.02
NPQKSYFIHLY [WAS_Y83_R86H]	SHP2-C SH2	1.02
LSFSEYASVQV [SIRPA_Y496_P491L]	SHP2-C SH2	0.783

Proceeding to the next sequence to report its SH2 binding enrichment.
**Q:** For the sequence FIRRDYEACKA [BBS4_Y48_K46R_YF] , what SH2 binding enrichment is on record?
**A:** 1.01

###

A collection of sequences and their measured phosphorylation enrichment
# test-target: Hck (UniProt P08631)
# Sequence (P08631 whole entry, looked up): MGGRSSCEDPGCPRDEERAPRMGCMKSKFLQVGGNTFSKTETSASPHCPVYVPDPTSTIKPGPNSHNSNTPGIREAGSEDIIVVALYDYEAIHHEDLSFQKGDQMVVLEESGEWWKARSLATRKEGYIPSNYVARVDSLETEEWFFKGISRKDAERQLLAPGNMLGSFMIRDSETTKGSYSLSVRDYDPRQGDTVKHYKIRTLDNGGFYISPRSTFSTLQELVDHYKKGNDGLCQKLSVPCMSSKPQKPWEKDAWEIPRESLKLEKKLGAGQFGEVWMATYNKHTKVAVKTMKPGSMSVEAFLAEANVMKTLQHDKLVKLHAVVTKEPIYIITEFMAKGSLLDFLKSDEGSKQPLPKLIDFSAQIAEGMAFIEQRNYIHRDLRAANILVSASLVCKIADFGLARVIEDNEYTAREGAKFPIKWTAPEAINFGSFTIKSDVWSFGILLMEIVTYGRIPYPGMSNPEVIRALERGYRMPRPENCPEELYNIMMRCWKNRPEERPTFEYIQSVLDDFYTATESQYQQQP
# test-details: phosphorylation enrichment, bacterial display (enrichment ratio); higher = better substrate or ligand; peptides without Tyr show the background
Lab note: jot down the number only; don't add units.

Consider the worked cases shown below.
query-sequence	readout-kind	reported-result
DMLFQYLKQIE [RPAP3_Y569_YF]	phosphorylation enrichment	0.571
PLQKTYNFNML [SLC4A1_Y553_V557M_YF]	phosphorylation enrichment	0.594
QDDYSYPSRQM [LDLR_Y847_G844D]	phosphorylation enrichment	1.02
TTSQLYDAVPI [PDPK1_Y9]	phosphorylation enrichment	11.5
LRSELYFLIAR [PHIP_Y16]	phosphorylation enrichment	1.93

**Q:** For the sequence VNTMLYEKFTY [TEK_Y1108_T1106M] , what phosphorylation enrichment is on record?
**A:** 7.18

**Q:** For the sequence ASMAKYYASEI [ACADSB_Y372] , what phosphorylation enrichment is on record?
**A:** 0.515

###

A collection of sequences and their measured phosphorylation enrichment
# Test system: c-Src
# test-details: phosphorylation enrichment, bacterial display (enrichment ratio); higher = better substrate or ligand; peptides without Tyr show the background
Lab note: jot down the number only; don't add units.

query-sequence	phosphorylation enrichment
DSDTDYGSGFP [RNASEH2A_Y206_L202S_YF]	0.494
GQECKYPPTQD [METAP2_Y137_E136K]	0.504

**Q:** For the sequence NHYKIHNLCAE [PTEN_Y68_Y68H] , what phosphorylation enrichment is on record?
**A:** 0.492

**Q:** For the sequence RNYDTYTAGLS [RHBDD1_Y264] , what phosphorylation enrichment is on record?
**A:** 1.39

**Q:** For the sequence WQQQSYLDLGI [CTNNB1_Y30_S33L] , what phosphorylation enrichment is on record?
**A:** 0.517

**Q:** For the sequence GPTLSYGRDGR [MATR3_Y158] , what phosphorylation enrichment is on record?
**A:** 0.332

**Q:** For the sequence SVKVYYKKCWS [EPHA7_Y202] , what phosphorylation enrichment is on record?
**A:** 0.432

**Q:** For the sequence AESPEYVHMYT [FAM111A_Y511] , what phosphorylation enrichment is on record?
**A:** 0.531

**Q:** For the sequence GVLKEYVVKVL [CPS1_Y529_G530V] , what phosphorylation enrichment is on record?
**A:** 0.355

**Q:** For the sequence ALAPKYHGGGG [HBB_Y146_H144P] , what phosphorylation enrichment is on record?
**A:** 0.389

**Q:** For the sequence TVLEPYTDPYY [ZC3H18_Y367_A368T] , what phosphorylation enrichment is on record?
**A:** 0.845

**Q:** For the sequence MLEVPYVDRNS [F10_Y384] , what phosphorylation enrichment is on record?
**A:** 0.395

**Q:** For the sequence WASQRYGRELR [BAD_Y110_A107S] , what phosphorylation enrichment is on record?
**A:** 0.501

**Q:** For the sequence LLREWYVQDPF [SIX3_Y225_L226V_YF] , what phosphorylation enrichment is on record?
**A:** 0.466

###

# test-target: EPHB2 (UniProt P29323)
# Sequence (P29323 whole entry, looked up): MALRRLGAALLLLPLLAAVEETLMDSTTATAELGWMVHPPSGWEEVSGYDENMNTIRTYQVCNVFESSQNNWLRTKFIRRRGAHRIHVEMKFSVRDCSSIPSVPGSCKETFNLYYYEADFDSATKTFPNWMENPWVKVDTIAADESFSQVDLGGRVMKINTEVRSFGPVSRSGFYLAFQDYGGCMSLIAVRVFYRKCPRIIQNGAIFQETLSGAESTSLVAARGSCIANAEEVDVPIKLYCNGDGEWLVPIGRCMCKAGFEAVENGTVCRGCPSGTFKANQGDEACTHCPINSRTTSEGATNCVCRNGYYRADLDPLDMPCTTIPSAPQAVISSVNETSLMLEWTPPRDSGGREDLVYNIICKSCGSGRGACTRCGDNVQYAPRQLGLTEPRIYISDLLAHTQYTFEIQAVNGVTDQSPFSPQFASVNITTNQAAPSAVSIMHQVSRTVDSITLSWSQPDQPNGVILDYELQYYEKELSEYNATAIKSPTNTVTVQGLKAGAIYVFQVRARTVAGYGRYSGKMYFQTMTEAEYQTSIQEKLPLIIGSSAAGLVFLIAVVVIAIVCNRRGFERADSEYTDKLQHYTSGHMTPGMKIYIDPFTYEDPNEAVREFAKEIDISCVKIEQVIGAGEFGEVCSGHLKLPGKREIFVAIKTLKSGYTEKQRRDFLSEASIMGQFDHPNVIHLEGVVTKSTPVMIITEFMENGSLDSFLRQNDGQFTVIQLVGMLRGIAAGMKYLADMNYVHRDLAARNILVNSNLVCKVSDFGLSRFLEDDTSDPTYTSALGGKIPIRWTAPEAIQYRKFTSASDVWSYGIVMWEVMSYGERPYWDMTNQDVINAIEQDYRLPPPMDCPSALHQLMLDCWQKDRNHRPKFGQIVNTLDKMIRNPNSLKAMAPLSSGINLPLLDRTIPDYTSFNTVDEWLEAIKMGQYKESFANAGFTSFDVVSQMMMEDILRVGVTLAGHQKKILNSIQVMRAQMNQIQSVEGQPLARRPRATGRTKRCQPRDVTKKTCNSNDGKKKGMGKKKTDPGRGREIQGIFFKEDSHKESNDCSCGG
# test-details: phosphorylation enrichment, bacterial display (enrichment ratio); higher = better substrate or ligand; peptides without Tyr show the background
readout-kind: phosphorylation enrichment
Lab note: jot down the number only; don't add units.

Consider the worked cases shown below.
query-sequence	readout-kind	reported-result
FGFPGYQCKHF [TIMP3_Y177_S179C_YF]	phosphorylation enrichment	0.514
IFGVSYDEYRY [CFTR_Y512]	phosphorylation enrichment	0.504

**Q:** For the sequence NALVQYQEMEK [BBS4_Y395_A393V] , what phosphorylation enrichment is on record?
**A:** 0.503

###

# test-target: MERTK (UniProt Q12866)
# Sequence (Q12866 whole entry, looked up): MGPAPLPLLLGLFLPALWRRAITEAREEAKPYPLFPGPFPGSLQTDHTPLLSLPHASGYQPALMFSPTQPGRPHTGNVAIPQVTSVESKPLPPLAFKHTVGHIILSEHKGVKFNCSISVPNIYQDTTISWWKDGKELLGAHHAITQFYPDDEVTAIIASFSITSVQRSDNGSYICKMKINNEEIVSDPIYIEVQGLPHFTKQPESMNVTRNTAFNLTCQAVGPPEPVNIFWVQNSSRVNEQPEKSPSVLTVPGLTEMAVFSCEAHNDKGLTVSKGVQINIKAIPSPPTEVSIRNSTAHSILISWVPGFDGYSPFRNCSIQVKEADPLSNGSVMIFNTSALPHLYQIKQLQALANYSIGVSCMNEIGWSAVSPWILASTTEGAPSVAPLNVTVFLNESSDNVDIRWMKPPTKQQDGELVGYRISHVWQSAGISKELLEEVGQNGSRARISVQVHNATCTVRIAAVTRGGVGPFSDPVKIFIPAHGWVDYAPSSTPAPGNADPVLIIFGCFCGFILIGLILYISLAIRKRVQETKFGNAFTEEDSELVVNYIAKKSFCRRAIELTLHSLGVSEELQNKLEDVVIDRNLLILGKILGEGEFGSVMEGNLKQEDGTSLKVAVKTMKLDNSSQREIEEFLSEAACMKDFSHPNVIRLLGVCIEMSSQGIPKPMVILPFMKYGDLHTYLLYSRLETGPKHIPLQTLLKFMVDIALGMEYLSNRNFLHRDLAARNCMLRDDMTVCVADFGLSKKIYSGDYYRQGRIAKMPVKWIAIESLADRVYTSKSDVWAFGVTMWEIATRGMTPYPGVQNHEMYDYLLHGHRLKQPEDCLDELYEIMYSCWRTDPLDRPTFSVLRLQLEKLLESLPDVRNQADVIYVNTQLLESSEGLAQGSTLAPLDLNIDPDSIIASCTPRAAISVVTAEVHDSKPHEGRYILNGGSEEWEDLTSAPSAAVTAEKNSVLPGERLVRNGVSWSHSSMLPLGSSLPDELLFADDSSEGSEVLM
# test-details: phosphorylation enrichment, bacterial display (enrichment ratio); higher = better substrate or ligand; peptides without Tyr show the background
Entry flag: rule met if phosphorylation enrichment reaches 0.6; rule not met if it does not.

Observe how each entry below is paired with its result.
query-sequence	class-assignment
GYRPVYSEDEQ [CHST6_Y362]	rule not met
FTGVEYSSCDT [EPHA3_Y937]	rule not met
GYSRHCEDGYP [CTNND1_Y217_Y217C]	rule not met
HIPFRYPKEFQ [IDS_Y234]	rule met
VIKDKYPKARF [APTX_Y209_YF]	rule not met
MGHVNYGAFIN [GLB1_Y485_R482H_YF]	rule not met

In the following, a different sequence is considered.
**Q:** Does FEPWVYSFSYE [PRKDC_Y647] have a reported phosphorylation enrichment of at least 0.6?
**A:** rule met

###

# test-target: MERTK (UniProt Q12866)
# test-details: phosphorylation enrichment, bacterial display (enrichment ratio); higher = better substrate or ligand; peptides without Tyr show the background
readout-kind: phosphorylation enrichment
Lab note: jot down the number only; don't add units.

Consider the worked cases shown below.
query-sequence	reported-result
GTATTYLCGVK [ALPL_Y117_A116T]	0.493
TLQSMFGCDVG [HLA-B_Y123_Y123F]	0.511

Proceeding to the next sequence to report its phosphorylation enrichment.
**Q:** Find the measured phosphorylation enrichment: item FGLDHYQCDCT [PTGS1_Y54_R53H] , target or system MERTK (UniProt Q12866).
**A:** 0.489

###

A collection of sequences and their measured phosphorylation enrichment
# test-target: Fes (UniProt P07332)
# Sequence (P07332 whole entry, looked up): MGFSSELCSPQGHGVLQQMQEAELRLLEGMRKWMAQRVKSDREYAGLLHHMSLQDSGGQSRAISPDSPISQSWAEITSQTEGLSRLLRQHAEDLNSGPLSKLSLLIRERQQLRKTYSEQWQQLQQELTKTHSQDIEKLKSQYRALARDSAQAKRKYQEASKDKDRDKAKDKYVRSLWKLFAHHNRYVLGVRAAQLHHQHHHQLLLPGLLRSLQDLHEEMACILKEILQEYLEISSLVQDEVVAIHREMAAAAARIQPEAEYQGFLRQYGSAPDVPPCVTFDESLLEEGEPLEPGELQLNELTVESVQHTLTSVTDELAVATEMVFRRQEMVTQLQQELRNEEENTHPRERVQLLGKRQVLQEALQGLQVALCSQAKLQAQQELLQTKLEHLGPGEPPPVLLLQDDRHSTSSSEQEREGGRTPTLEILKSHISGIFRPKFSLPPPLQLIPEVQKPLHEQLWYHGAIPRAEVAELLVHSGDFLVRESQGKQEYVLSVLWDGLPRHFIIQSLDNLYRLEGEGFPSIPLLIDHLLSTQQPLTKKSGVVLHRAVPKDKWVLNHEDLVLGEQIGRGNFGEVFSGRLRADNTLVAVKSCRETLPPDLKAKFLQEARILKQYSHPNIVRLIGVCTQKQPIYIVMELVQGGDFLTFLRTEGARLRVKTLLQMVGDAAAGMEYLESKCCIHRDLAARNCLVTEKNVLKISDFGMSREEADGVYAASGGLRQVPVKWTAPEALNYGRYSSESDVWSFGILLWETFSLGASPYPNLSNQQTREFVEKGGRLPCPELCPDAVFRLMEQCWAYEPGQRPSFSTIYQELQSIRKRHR
# test-details: phosphorylation enrichment, bacterial display (enrichment ratio); higher = better substrate or ligand; peptides without Tyr show the background

query-sequence	reported-result
LGQRIYQYIRS [DYRK1B_Y271_Q275R]	1.56

**Q:** For the sequence DRLASSLDKVR [KRT10_Y160_Y160S] , what phosphorylation enrichment is on record?
**A:** 0.663

**Q:** For the sequence KELAKYFKLHH [AK7_Y390_N389K_YF] , what phosphorylation enrichment is on record?
**A:** 0.626

**Q:** For the sequence LPKEQYLCTKE [AFG3L2_Y614_Y616C] , what phosphorylation enrichment is on record?
**A:** 1.01

**Q:** For the sequence FASVEYQEALS [GALNS_Y461_A459V] , what phosphorylation enrichment is on record?
**A:** 0.997

**Q:** For the sequence SVVVPYEPPKV [TP53_Y220_E224K] , what phosphorylation enrichment is on record?
**A:** 0.837

###

# test-target: FGFR1 (UniProt P11362)
# Sequence (P11362 whole entry, looked up): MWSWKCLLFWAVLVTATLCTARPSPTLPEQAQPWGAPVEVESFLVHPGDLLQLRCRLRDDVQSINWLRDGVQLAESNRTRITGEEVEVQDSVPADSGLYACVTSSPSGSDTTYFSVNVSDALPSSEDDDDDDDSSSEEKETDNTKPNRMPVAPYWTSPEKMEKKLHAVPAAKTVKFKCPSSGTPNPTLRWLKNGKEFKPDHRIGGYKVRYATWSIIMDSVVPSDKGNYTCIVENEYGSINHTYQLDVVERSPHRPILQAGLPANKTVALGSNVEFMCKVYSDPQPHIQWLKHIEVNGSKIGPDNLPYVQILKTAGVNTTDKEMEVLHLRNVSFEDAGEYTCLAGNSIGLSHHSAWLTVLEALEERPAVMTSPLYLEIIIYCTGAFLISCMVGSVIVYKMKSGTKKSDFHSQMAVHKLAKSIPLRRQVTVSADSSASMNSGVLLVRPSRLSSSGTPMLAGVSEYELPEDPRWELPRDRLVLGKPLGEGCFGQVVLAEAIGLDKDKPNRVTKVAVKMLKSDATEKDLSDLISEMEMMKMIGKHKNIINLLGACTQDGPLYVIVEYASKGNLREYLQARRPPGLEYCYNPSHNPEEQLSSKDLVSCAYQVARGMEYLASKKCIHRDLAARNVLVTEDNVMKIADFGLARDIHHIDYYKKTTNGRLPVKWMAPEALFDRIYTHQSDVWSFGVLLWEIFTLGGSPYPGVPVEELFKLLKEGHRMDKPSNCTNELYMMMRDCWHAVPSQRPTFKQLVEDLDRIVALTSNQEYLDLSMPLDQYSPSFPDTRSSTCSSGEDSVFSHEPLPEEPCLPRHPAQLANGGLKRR
# test-details: phosphorylation enrichment, bacterial display (enrichment ratio); higher = better substrate or ligand; peptides without Tyr show the background
readout-kind: phosphorylation enrichment
Lab note: jot down the number only; don't add units.

Consider the worked cases shown below.
query-sequence	test-target	phosphorylation enrichment
VSGIPYGQPKQ [NEU1_Y251]	FGFR1 (UniProt P11362)	0.415
CEDGTYSPEIS [PTDSS1_Y424]	FGFR1 (UniProt P11362)	0.5
IDDNQYAYLKA [HNF4A_Y286_E285Q]	FGFR1 (UniProt P11362)	2.93

**Q:** For the sequence QMVGMYAFSYM [AVPR2_Y124_S126F] , what phosphorylation enrichment is on record?
**A:** 0.804

**Q:** For the sequence DGKYSYLKVGH [GRM3_Y480_G475D] , what phosphorylation enrichment is on record?
**A:** 0.38
